Source: ChEMBL document CHEMBL1125594

Consider the following compounds and their measured IC50 readings.
tested on: Nucleic Acid; assay: Antitumor potency on human breast MCF-7 cell lines.; format: functional, cell-based; conditions: MCF7

Check out these entries, answers already filled in.
- compound: "CO[C@@]12C(COC(N)=O)C3=C(C(=O)C(C)=C(Nc4ccc(Br)cc4)C3=O)N1CC1NC12 (stereo partly drawn)"
  obs value: "2.66 nM"
- compound: "CO[C@@]12C(COC(N)=O)C3=C(C(=O)C(C)=C(Nc4ccc(F)cc4)C3=O)N1CC1NC12 (stereo partly drawn)"
  obs value: "1.77 nM"

Would you kindly look at the next entry?
Looking for the measured IC50 of CO[C@@]12C(COC(N)=O)C3=C(C(=O)C(C)=C(Nc4ccc(I)cc4)C3=O)N1CC1NC12 (stereo partly drawn) , can you help?
2.84 nM

* * *

Below is a list of entries, each paired with its recorded pIC50 value.
system: Nucleic Acid; assay: Antitumor potency on human colon WIDR cell lines.; assay type: functional, cell-based
Note: pIC50 values are expressed as the negative base-10 logarithm of concentration in M.

- compound: "CO[C@@]12C(COC(N)=O)C3=C(C(=O)C(C)=C(OC4CC4)C3=O)N1CC1NC12 (stereo partly specified)"
  target under test: "Nucleic Acid"
  reported metric: "pIC50"
  obs value: 9.68
- compound: "CO[C@@]12C(COC(N)=O)C3=C(C(=O)C(C)=C(Nc4nc(C)cs4)C3=O)N1CC1NC12 (stereo partly specified)"
  target under test: "Nucleic Acid"
  reported metric: "pIC50"
  obs value: 8.88
- compound: "CO[C@@]12C(COC(N)=O)C3=C(C(=O)C(C)=C(NCCc4ccccn4)C3=O)N1CC1NC12 (stereo partly specified)"
  target under test: "Nucleic Acid"
  reported metric: "pIC50"
  obs value: 7.58
- compound: "CO[C@@]12C(COC(N)=O)C3=C(C(=O)C(C)=C(Nc4ccc(Br)cc4)C3=O)N1CC1NC12 (stereo partly specified)"
  target under test: "Nucleic Acid"
  reported metric: "pIC50"
  obs value: 8.92
- compound: "CO[C@@]12C(COC(N)=O)C3=C(C(=O)C(C)=C(OCCO)C3=O)N1CC1NC12 (stereo partly specified)"
  target under test: "Nucleic Acid"
  reported metric: "pIC50"
  obs value: 8.37
- compound: "C#CCNC1=C(C)C(=O)C2=C(C1=O)C(COC(N)=O)[C@@]1(OC)C3NC3CN21 (stereo partly specified)"
  target under test: "Nucleic Acid"
  reported metric: "pIC50"
  obs value: 8.41
- compound: "CO[C@@]12C(COC(N)=O)C3=C(C(=O)C(C)=C(OCCOc4ccccc4)C3=O)N1CC1NC12 (stereo partly specified)"
  target under test: "Nucleic Acid"
  reported metric: "pIC50"
  obs value: 9.92
- compound: "CO[C@@]12C(COC(N)=O)C3=C(C(=O)C(C)=C(OCC4CCC4)C3=O)N1CC1NC12 (stereo partly specified)"
  target under test: "Nucleic Acid"
  reported metric: "pIC50"
  obs value: 9.72
- compound: "COCCOCCOC1=C(C)C(=O)C2=C(C1=O)C(COC(N)=O)[C@@]1(OC)C3NC3CN21 (stereo partly specified)"
  target under test: "Nucleic Acid"
  reported metric: "pIC50"
  obs value: 8.34
- compound: "CO[C@@]12C(COC(N)=O)C3=C(C(=O)C(C)=C(NCCc4ccco4)C3=O)N1CC1NC12 (stereo partly specified)"
  target under test: "Nucleic Acid"
  reported metric: "pIC50"
  obs value: 7.39

# input compound: CO[C@@]12C(COC(N)=O)C3=C(C(=O)C(C)=C(Nc4ccc([N+](=O)[O-])cc4)C3=O)N1CC1NC12 (stereo partly specified) ; wanted: its pIC50
9.38

Bench note: what pIC50 did CO[C@@]12C(COC(N)=O)c3c(O)c(/N=C4\C=CC(=O)C([N+](=O)[O-])=C4)c(C)c(O)c3N1CC1NC12 (stereo partly specified) show?
7.59

Recorded pIC50 for CO[C@@]12C(COC(N)=O)c3c(O)c(N=C4C=CC(=N)C=C4)c(C)c(O)c3N1CC1NC12 (stereo partly specified) , please?
7.54

Fill in the blank: the reported pIC50 of CO[C@@]12C(COC(N)=O)C3=C(C(=O)C(C)=C(OCCSSCCO)C3=O)N1CC1NC12 (stereo partly specified) is ____.
8.83

Look up pIC50: CO[C@@]12C(COC(N)=O)c3c(O)c(/N=C4\C=CC(=O)C(I)=C4)c(C)c(O)c3N1CC1NC12 (stereo partly specified)
8.19

// pIC50 lookup, key: CO[C@@]12C(COC(N)=O)c3c(O)c(/N=C4/C=CN=N4)c(C)c(O)c3N1CC1NC12 (stereo partly specified)
7.89
